Each recorded value in this set is attributed to patent US7300946B2.

Below, each of the compounds is paired with its reported Percent Mortality value.
tested on: tobacco budworm (Heliothis virescens [Fabricius]); experiment: surface-treated diet test against the tobacco budworm; assay type: in vivo; conditions: tobacco budworm second instar larvae; surface-treated diet; 0.25 millimoles of candidate insecticide on the surface of the diet; five-day exposure; compared to total number of insects infested
# unit: % | format: bare number

// worked examples, Percent Mortality included
input: Report measured Percent Mortality on tobacco budworm (Heliothis virescens [Fabricius]); entry: O=C(Nc1ccc(Cl)cc1)OC(c1ccc(C(F)(F)F)cc1)C1CCN(Cc2ccc(Oc3cccc[n+]3[O-])cc2)CC1 (stereo not shown)
output: 100

input: Report measured Percent Mortality on tobacco budworm (Heliothis virescens [Fabricius]); entry: CCCOc1ccc(CN2CCC(C(OC(=O)Nc3ccc(Cl)cc3)c3cccc(C(F)(F)F)c3)CC2)cc1 (stereo not shown)
output: 100

input: Report measured Percent Mortality on tobacco budworm (Heliothis virescens [Fabricius]); entry: N#Cc1ccc(NC(=O)OC(c2ccc(C(F)(F)F)cc2)C2CCN(Cc3ccc(Oc4ccccn4)cc3)CC2)cn1 (stereo not shown)
output: 17

input: Report measured Percent Mortality on tobacco budworm (Heliothis virescens [Fabricius]); entry: Cn1nnc(-c2ccc(CN3CCC(C(NCc4ccc(OC(F)(F)F)cc4)c4ccc(OC(F)(F)F)cc4)CC3)cc2)n1 (stereo not shown)
output: 100

input: Report measured Percent Mortality on tobacco budworm (Heliothis virescens [Fabricius]); entry: CC(C)(C)C(=O)Nc1ccc(CN2CCC(C(OC(=O)Nc3cc(F)cc(F)c3)c3ccc(C(F)(F)F)cc3)CC2)cc1 (stereo not shown)
output: 17

Others:
input: Report measured Percent Mortality on tobacco budworm (Heliothis virescens [Fabricius]); entry: CCn1nnc(-c2ccc(CN3CCC(C(OC(=O)Nc4ccc(Cl)cc4)c4ccc(Oc5ccccc5)cc4)CC3)cc2)n1 (stereo not shown)
output: 100

input: Report measured Percent Mortality on tobacco budworm (Heliothis virescens [Fabricius]); entry: O=C(Nc1cc(F)cc(F)c1)OC(c1ccc(C(F)(F)F)cc1)C1CCN(Cc2ccc(-n3cccn3)cc2)CC1 (stereo not shown)
output: 100
